Tested System: human PARS enzyme (Homo sapiens, UniProt P09874)
Sequence (P09874 whole entry): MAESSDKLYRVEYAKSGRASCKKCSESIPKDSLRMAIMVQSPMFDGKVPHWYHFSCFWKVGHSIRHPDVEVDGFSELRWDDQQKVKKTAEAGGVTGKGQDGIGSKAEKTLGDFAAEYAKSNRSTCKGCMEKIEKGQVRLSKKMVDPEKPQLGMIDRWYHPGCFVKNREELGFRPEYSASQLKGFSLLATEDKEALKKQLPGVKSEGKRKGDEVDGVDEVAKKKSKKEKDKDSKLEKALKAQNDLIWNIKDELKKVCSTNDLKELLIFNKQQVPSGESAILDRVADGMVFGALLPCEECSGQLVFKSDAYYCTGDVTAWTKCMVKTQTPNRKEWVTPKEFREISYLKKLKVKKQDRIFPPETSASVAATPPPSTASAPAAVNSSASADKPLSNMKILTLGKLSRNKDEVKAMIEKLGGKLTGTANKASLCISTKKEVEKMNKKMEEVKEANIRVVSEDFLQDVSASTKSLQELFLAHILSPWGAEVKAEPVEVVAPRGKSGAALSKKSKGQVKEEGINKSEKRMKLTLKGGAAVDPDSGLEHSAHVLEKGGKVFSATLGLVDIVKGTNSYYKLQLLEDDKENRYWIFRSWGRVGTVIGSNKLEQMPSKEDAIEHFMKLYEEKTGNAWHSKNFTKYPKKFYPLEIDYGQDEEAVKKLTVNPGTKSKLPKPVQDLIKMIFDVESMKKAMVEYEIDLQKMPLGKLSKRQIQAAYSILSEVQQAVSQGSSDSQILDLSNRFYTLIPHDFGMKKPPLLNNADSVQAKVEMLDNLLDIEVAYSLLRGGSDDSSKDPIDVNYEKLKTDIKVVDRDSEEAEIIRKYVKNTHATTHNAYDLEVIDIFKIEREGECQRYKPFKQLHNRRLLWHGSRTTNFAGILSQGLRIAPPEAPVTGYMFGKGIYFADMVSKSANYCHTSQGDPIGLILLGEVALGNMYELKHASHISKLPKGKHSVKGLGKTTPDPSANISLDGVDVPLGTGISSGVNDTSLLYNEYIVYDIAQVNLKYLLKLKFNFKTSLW
Test Protocol: PARS inhibition test (in vitro)
Condition Context: recombinant human PARS, [14C]-NAD+, 10 min room temperature
Measurement Label: IC50 (nM)
Dear colleague, please return just the value in nM, with no unit written.

Solved entries:
{"Molecule": "Cc1[nH]ncc1CCCn1c2c(c(=O)[nH]c1=O)CSCC2 [Example 53]", "Tested System": "human PARS enzyme (Homo sapiens, UniProt P09874)", "Measurement Label": "IC50", "Result Value": 80}
{"Molecule": "Cc1cn(CCCn2c3c(c(=O)[nH]c2=O)CSCC3)cn1 [Example 8]", "Tested System": "human PARS enzyme (Homo sapiens, UniProt P09874)", "Measurement Label": "IC50", "Result Value": 85}

Note: attention shifts to another entry.
INPUT: Look up IC50 for this molecule: CC(C)N1CCN(C(=O)c2ccc(CCn3c4c(c(=O)[nH]c3=O)CSCC4)cc2)CC1 [Example 62]
OUTPUT: 800

The origin of these recorded values is patent US20050159431A1.
